Measured values drawn from patent US20210275641A1 for this set.

The reader will find reported pSTAT5 ratio YT CD25/YT, dilution factor 32, upper table values listed item by item below.
Biological target: T1, human high affinity trimeric IL-2 receptor (CD25/CD122/CD132) (human, UniProt P01589 22-272; P14784 27-551; P31785 23-369)
T1 sequence 1: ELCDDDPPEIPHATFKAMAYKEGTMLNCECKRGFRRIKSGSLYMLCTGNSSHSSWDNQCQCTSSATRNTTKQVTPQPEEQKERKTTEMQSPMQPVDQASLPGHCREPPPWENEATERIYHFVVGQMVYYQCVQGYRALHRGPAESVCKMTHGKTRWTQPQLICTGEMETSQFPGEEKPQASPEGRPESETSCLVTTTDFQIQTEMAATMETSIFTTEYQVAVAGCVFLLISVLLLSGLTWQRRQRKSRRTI
T1 sequence 2: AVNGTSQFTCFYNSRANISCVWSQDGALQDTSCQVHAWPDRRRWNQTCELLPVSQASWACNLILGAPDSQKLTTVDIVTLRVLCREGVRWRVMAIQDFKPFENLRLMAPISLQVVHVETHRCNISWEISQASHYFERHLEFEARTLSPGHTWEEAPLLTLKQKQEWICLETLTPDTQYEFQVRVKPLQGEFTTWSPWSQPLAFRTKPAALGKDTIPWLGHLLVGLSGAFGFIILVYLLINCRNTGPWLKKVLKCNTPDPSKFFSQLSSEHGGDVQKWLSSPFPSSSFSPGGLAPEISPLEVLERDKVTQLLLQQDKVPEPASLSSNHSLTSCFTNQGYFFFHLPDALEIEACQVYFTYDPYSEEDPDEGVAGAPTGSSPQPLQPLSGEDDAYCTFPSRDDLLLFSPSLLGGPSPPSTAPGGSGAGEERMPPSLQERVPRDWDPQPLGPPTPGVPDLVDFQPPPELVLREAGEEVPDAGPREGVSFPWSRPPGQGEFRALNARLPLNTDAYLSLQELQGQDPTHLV
T1 sequence 3: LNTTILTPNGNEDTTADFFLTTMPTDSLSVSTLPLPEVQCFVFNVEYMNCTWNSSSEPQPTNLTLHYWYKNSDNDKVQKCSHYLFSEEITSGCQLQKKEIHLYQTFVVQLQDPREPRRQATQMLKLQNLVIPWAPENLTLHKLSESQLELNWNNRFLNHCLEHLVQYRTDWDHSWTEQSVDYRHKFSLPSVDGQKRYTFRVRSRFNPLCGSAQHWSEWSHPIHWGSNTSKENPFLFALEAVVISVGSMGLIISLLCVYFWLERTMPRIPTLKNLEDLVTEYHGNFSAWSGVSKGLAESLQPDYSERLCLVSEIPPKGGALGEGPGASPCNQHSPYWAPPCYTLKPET
Assay: cell-based or functional assay
experimentalEndpoint: pSTAT5 ratio YT CD25/YT, dilution factor 32, upper table

binder | recordedMeasurement
QEH (ligand) cytokine: APTSSSTKKTQLQLEHLQLDLEMILNGINNYKNPKLTRMLTFKFYMPKKATELKHLQCLEEELKPLEEVLNLAQSKNFHLRPRDLISNINVIVLELKGSETTFMCEYADETATIVEFLNRWITFCHSIISTLT | 5.8
hIL2 mutein REH (L18R, Q22E, Q126H) (ligand) APTSSSTKKTQLQLEHLRLDLEMILNGINNYKNPKLTRMLTFKFYMPKKATELKHLQCLEEELKPLEEVLNLAQSKNFHLRPRDLISNINVIVLELKGSETTFMCEYADETATIVEFLNRWITFCHSIISTLT | 1.8
SEH (ligand) cytokine: APTSSSTKKTQLQLEHLSLDLEMILNGINNYKNPKLTRMLTFKFYMPKKATELKHLQCLEEELKPLEEVLNLAQSKNFHLRPRDLISNINVIVLELKGSETTFMCEYADETATIVEFLNRWITFCHSIISTLT | 7.8
WEH (ligand) cytokine: APTSSSTKKTQLQLEHLWLDLEMILNGINNYKNPKLTRMLTFKFYMPKKATELKHLQCLEEELKPLEEVLNLAQSKNFHLRPRDLISNINVIVLELKGSETTFMCEYADETATIVEFLNRWITFCHSIISTLT | 3.9
FEH (ligand) cytokine: APTSSSTKKTQLQLEHLFLDLEMILNGINNYKNPKLTRMLTFKFYMPKKATELKHLQCLEEELKPLEEVLNLAQSKNFHLRPRDLISNINVIVLELKGSETTFMCEYADETATIVEFLNRWITFCHSIISTLT | 1.7
IEH (ligand) cytokine: APTSSSTKKTQLQLEHLILDLEMILNGINNYKNPKLTRMLTFKFYMPKKATELKHLQCLEEELKPLEEVLNLAQSKNFHLRPRDLISNINVIVLELKGSETTFMCEYADETATIVEFLNRWITFCHSIISTLT | 4.6
